The origin of these recorded values is patent US7563813B2.

- Experimental system: hSFRP-1 (Homo sapiens)
- Construct: expressed in transfected cells; host or cells: U2OS osteosarcoma cells (ATCC, HTB 96), transient co-transfection with Wnt 3, Wnt3A or Wnt 1, 16x TCF-tk-Luciferase reporter and CMV-beta-gal
- Procedure text: Cell-Based Assay for In Vitro Measurement of SFRP-1/SARP2 Antagonist Activity (U2OS cells, 16x TCF-tk-Luciferase reporter, Wnt + hSFRP-1 co-transfection)
- Cond: initial single dose screening at 10 μM, ratio not defined
Listing of entries alongside the reported Ratio.
Answer using only a numeral; do not append any unit.

As a guide, the following entries are already answered.
Compound: COC(=O)c1c(NC(=O)CC2SC(=N)NC2=O)sc2c1CCC(OC)C2 (stereo not shown)
Ratio: 1.7
--
Compound: CCOC(=O)c1c(NC(=O)CC2SC(=N)NC2=O)sc(Br)c1CNC1CCCC1 (stereo not shown)
Ratio: 1.1
--
Compound: CCOC(=O)c1cc(CC)sc1NC(=O)CC1SC(=N)NC1=O (stereo not shown)
Ratio: 1.7
--
Compound: Cc1cc(NC(=O)CC2SC(=N)NC2=O)on1 (stereo not shown)
Ratio: 1.0
--
Compound: CSc1cccc(NC(=O)CC2SC(=N)NC2=O)c1 (stereo not shown)
Ratio: 1.2
--
Compound: CCOC(=O)c1c(NC(=O)CC2SC(N)=NC2=O)sc(C)c1C (stereo not shown)
Ratio: 2.5
--
Compound: N=C1NC(=O)C(CC(=O)Nc2cccc(Br)c2)S1 (stereo not shown)
Ratio: 1.8
--
Compound: CC(=O)c1cccc(NC(=O)CC2SC(=N)NC2=O)c1 (stereo not shown)
Ratio: 1.1

Data request: Return reported Ratio; argument: N=C1NC(=O)C(CC(=O)Nc2cccc(Oc3ccccc3)c2)S1 (stereo not shown)
Data returned: 1.4

Data request: Return reported Ratio; argument: N#Cc1c(NC(=O)CC2SC(=N)NC2=O)sc2c1CCCC2 (stereo not shown)
Data returned: 1.2

* * *

- Experimental system: hSFRP-1 (Homo sapiens, UniProt Q8N474)
- Construct: expressed in transfected cells; host or cells: U2OS osteosarcoma cells (ATCC, HTB 96), transient co-transfection with Wnt 3, Wnt3A or Wnt 1, 16x TCF-tk-Luciferase reporter and CMV-beta-gal
- Sequence (Q8N474 32-314): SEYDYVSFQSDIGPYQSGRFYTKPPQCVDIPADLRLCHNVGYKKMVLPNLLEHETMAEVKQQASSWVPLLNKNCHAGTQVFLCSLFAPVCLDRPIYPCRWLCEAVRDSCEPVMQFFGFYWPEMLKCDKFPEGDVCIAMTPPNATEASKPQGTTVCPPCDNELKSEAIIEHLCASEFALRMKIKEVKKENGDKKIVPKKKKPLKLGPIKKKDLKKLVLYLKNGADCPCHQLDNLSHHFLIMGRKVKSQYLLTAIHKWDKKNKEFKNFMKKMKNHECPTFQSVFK
- Procedure text: Cell-Based Assay for In Vitro Measurement of SFRP-1/SARP2 Antagonist Activity (U2OS cells, 16x TCF-tk-Luciferase reporter, Wnt + hSFRP-1 co-transfection)
- Cond: initial single dose screening at 10 μM, ratio not defined
Endpoint name: Ratio
Answer using only a numeral; do not append any unit.

As a guide, the following entries are already answered.
Compound: CCOC(=O)c1c(NC(=O)CC2SC(=N)NC2=O)sc2c1CCCC2 (centres unmarked)
Experimental system: hSFRP-1 (Homo sapiens, UniProt Q8N474)
Ratio: 1.6
--
Compound: COC(=O)c1cc(Cl)ccc1NC(=O)CC1SC(=N)NC1=O (centres unmarked)
Experimental system: hSFRP-1 (Homo sapiens, UniProt Q8N474)
Ratio: 1.1
--
Compound: N=C1NC(=O)C(CC(=O)Nc2ccc(F)c(F)c2)S1 (centres unmarked)
Experimental system: hSFRP-1 (Homo sapiens, UniProt Q8N474)
Ratio: 1.5
--
Compound: N=C1NC(=O)C(CC(=O)Nc2cccc(C(=O)c3ccccc3)c2)S1 (centres unmarked)
Experimental system: hSFRP-1 (Homo sapiens, UniProt Q8N474)
Ratio: 1.5
--
Compound: COC(=O)c1ccccc1NC(=O)CC1SC(=N)NC1=O (centres unmarked)
Experimental system: hSFRP-1 (Homo sapiens, UniProt Q8N474)
Ratio: 1.0

Data request: Identify the measured Ratio of COC(=O)c1ccsc1NC(=O)CC1SC(=N)NC1=O (centres unmarked) for hSFRP-1 (Homo sapiens, UniProt Q8N474).
Data returned: 1.3

Data request: Identify the measured Ratio of N#Cc1cccc(NC(=O)CC2SC(=N)NC2=O)c1 (centres unmarked) for hSFRP-1 (Homo sapiens, UniProt Q8N474).
Data returned: 1.2

Data request: Identify the measured Ratio of N=C1NC(=O)C(CC(=O)NCc2ccccc2Cl)S1 (centres unmarked) for hSFRP-1 (Homo sapiens, UniProt Q8N474).
Data returned: 1.0

Data request: Identify the measured Ratio of COC(=O)c1scc(C)c1NC(=O)CC1SC(=N)NC1=O (centres unmarked) for hSFRP-1 (Homo sapiens, UniProt Q8N474).
Data returned: 1.0

Data request: Identify the measured Ratio of CCOC(=O)c1c(NC(=O)CC2SC(=N)NC2=O)sc2c1CCCCC2 (centres unmarked) for hSFRP-1 (Homo sapiens, UniProt Q8N474).
Data returned: 1.9

Data request: Identify the measured Ratio of N=C1NC(=O)C(CC(=O)Nc2ccc(Cl)cc2Cl)S1 (centres unmarked) for hSFRP-1 (Homo sapiens, UniProt Q8N474).
Data returned: 1.0

Data request: Identify the measured Ratio of CCOC(=O)c1c(-c2ccc(F)cc2)csc1NC(=O)CC1SC(=N)NC1=O (centres unmarked) for hSFRP-1 (Homo sapiens, UniProt Q8N474).
Data returned: 1.0

Data request: Identify the measured Ratio of CCOC(=O)c1c(NC(=O)CC2SC(=N)NC2=O)sc2c1CCC2 (centres unmarked) for hSFRP-1 (Homo sapiens, UniProt Q8N474).
Data returned: 1.5

Data request: Identify the measured Ratio of CCOC(=O)c1c(NC(=O)CC2SC(=N)NC2=O)sc(C)c1-c1ccccc1 (centres unmarked) for hSFRP-1 (Homo sapiens, UniProt Q8N474).
Data returned: 1.8
